system: Culex pipiens pallens; experiment: Insecticidal activity against Culex pipiens pallens (mosquito) fourth-instar larvae assessed as mortality at 2 ug/mL measured 72 hr post compound treatment; assay type: functional
Entry flag: condition met if mortality at 2 µg/mL reaches 30%; condition not met if it does not.

Examples from the recorded data:
[
  {
    "compound": "Cc1cccc([N+](=O)[O-])c1NC(=O)c1cc(Br)nn1-c1ncccc1Cl",
    "class-label": "condition met"
  },
  {
    "compound": "Cc1cc(Cl)cc([N+](=O)[O-])c1NC(=O)c1cc(Br)nn1-c1ncccc1Cl",
    "class-label": "condition not met"
  },
  {
    "compound": "Cc1cc([N+](=O)[O-])ccc1NC(=O)c1cc(Br)nn1-c1ncccc1Cl",
    "class-label": "condition met"
  }
]

Is it the case that CNC(=O)c1cc(Cl)cc(C)c1NC(=O)c1cc(Br)nn1-c1ncccc1Cl [CHLORANTRANILIPROLE] has mortality at 2 µg/mL reaching or exceeding 30%?
condition met

Is it the case that `O=C(Nc1ccc([N+](=O)[O-])cc1Br)c1cc(Br)nn1-c1ncccc1Cl` has mortality at 2 µg/mL reaching or exceeding 30%?
condition met

Is it the case that `O=C(Nc1ccc(Cl)cc1)c1cc(Br)nn1-c1ncccc1Cl` has mortality at 2 µg/mL reaching or exceeding 30%?
condition not met

Is it the case that `O=C(Nc1ccc([N+](=O)[O-])cc1)c1cc(Br)nn1-c1ncccc1Cl` has mortality at 2 µg/mL reaching or exceeding 30%?
condition not met

Is it the case that `O=C(Nc1ccc([N+](=O)[O-])cc1Cl)c1cc(Br)nn1-c1ncccc1Cl` has mortality at 2 µg/mL reaching or exceeding 30%?
condition met

Is it the case that `O=C(Nc1ccc(Cl)cc1[N+](=O)[O-])c1cc(Br)nn1-c1ncccc1Cl` has mortality at 2 µg/mL reaching or exceeding 30%?
condition met

Is it the case that `O=C(Nc1cc(Cl)ccc1Cl)c1cc(Br)nn1-c1ncccc1Cl` has mortality at 2 µg/mL reaching or exceeding 30%?
condition not met

Is it the case that `O=C(Nc1ccc(I)cc1)c1cc(Br)nn1-c1ncccc1Cl` has mortality at 2 µg/mL reaching or exceeding 30%?
condition met

Is it the case that `O=C(Nc1ccc(F)cc1)c1cc(Br)nn1-c1ncccc1Cl` has mortality at 2 µg/mL reaching or exceeding 30%?
condition not met

====

test system: Culex pipiens pallens; experiment: Insecticidal activity against Culex pipiens pallens (mosquito) fourth-instar larvae assessed as mortality at 2 ug/mL measured 72 hr post compound treatment; assay type: functional
parameter: mortality at 2 µg/mL
Field note: include the unit after the figure.

// known answers, use as guide
[
  {
    "compound": "Cc1cc(Cl)cc(C)c1NC(=O)c1cc(Br)nn1-c1ncccc1Cl",
    "mortality at 2 µg/mL": "30%"
  },
  {
    "compound": "CCOc1ccc(NC(=O)c2cc(Br)nn2-c2ncccc2Cl)cc1",
    "mortality at 2 µg/mL": "30%"
  }
]

Would you mind telling me what mortality at 2 µg/mL value was observed for `Cc1cc(Br)cc(C)c1NC(=O)c1cc(Br)nn1-c1ncccc1Cl` ?
30%

Sourced from ChEMBL document CHEMBL3045024
